Origin of measurements: patent US20250145633A1

# assayed system: human PDE1B enzyme (Homo sapiens (Human), UniProt Q01064)
# protocol text: IMAP TR-FRET PDE1B enzymatic assay
# Type: biochemical
# test parameters: negative log of half-maximal molar inhibitory concentration; 200 nM FAM-cAMP; values given as bins; read-out: PDE1b (pIC50) (converted)
Recorded measurements of IC50, one per entry

* Cc1oc2ncnc(NC3(C)CC3)c2c1C(=O)NCc1ncc(C(F)(F)F)cn1 [Example 696] | 10 to 100 nM

I am curious: what IC50 value has been reported for Cc1oc2ncnc(NC3(C)CC3)c2c1C(=O)N1CCc2cc(Cl)ncc2C1 [Example 642] ? 10 to 100 nM

I am curious: what IC50 value has been reported for COc1cc(NC(=O)c2c(C)oc3ncnc(NC4(C)CC4)c23)ccc1F [Example 253] ? 10 to 100 nM

I am curious: what IC50 value has been reported for Cc1oc2ncnc(NC3(C)CC3)c2c1C(=O)NC(C)c1ccccn1 (centres unmarked) [Example 77] ? 10 to 100 nM

====

# assayed system: human PDE1B enzyme (Homo sapiens (Human))
# protocol text: IMAP TR-FRET PDE1B enzymatic assay
# Type: biochemical
# test parameters: negative log of half-maximal molar inhibitory concentration; 200 nM FAM-cAMP; values given as bins; read-out: PDE1b (pIC50) (converted)
endpoint label: IC50

I am curious: what IC50 value has been reported for Cc1oc2ncnc(NC3(C)CC3)c2c1C(=O)NCC1(F)COC1 ? 0.1 to 1 µM

I am curious: what IC50 value has been reported for Cc1oc2ncnc(NC3(C)CC3)c2c1C(=O)NC12CC(C1)C2 ? 0.01 to 0.1 µM

I am curious: what IC50 value has been reported for Cc1cc(C(C)NC(=O)c2c(C)oc3ncnc(NC4(C)CC4)c23)no1 (stereo not drawn) ? 0.01 to 0.1 µM

I am curious: what IC50 value has been reported for Cc1oc2ncnc(NC3(C)CC3)c2c1C(=O)Nc1ccc(-c2ccoc2)nc1 ? 0.01 to 0.1 µM

I am curious: what IC50 value has been reported for Cc1oc2ncnc(NC3(C)CC3)c2c1C(=O)NCc1cncnc1 ? 0.1 to 1 µM

I am curious: what IC50 value has been reported for Cc1oc2ncnc(NC3(C)CC3)c2c1C(=O)NCc1ccnc(N2CCOCC2)c1 ? 0.01 to 0.1 µM

I am curious: what IC50 value has been reported for Cc1noc(NC(=O)c2c(C)oc3ncnc(NC4(C)CC4)c23)n1 ? 0.01 to 0.1 µM

I am curious: what IC50 value has been reported for Cc1oc2ncnc(NC3(C)CC3)c2c1C(=O)N1CCN(c2ccc(F)c(F)c2)C(=O)C1 ? 0.01 to 0.1 µM

I am curious: what IC50 value has been reported for Cc1oc2ncnc(NC3(C)CC3)c2c1C(=O)NCCn1ccnc1 ? 0.1 to 1 µM

I am curious: what IC50 value has been reported for Cc1oc2ncnc(NC3(C)CC3)c2c1C(=O)N1C[C@@H]2[C@H](C1)[C@H]2c1ccccc1 ? 0.01 to 0.1 µM

====

Recorded measurements of IC50, one per entry
# assayed system: human PDE1B enzyme (Homo sapiens (Human))
# protocol text: IMAP TR-FRET PDE1B enzymatic assay
# Assay type: biochemical
# test parameters: negative log of half-maximal molar inhibitory concentration; 200 nM FAM-cAMP; values given as bins; read-out: PDE1b (pIC50) (converted)

- Cc1oc2ncnc(NC3(C)CC3)c2c1C(=O)N1CC2C(C1)C2(C)C (centres unmarked): 10 to 100 nM
- Cc1oc2ncnc(NC3(C)CC3)c2c1C(=O)NCc1nc2cc(F)ccc2[nH]1: 10 to 100 nM
- Cc1oc2ncnc(NC3(C)CC3)c2c1C(=O)N1CCCN(c2ccccc2F)CC1: 10 to 100 nM
- Cc1oc2ncnc(NC3(C)CC3)c2c1C(=O)N(C)c1cnn(C)c1: 100 to 1000 nM

Enter reported IC50 observed with human PDE1B enzyme (Homo sapiens (Human)) for COc1ccc(NC(=O)c2c(C)oc3ncnc(NC4(C)CC4)c23)nc1 10 to 100 nM
